Where do these numbers come from? They come from ChEMBL document CHEMBL2380247.

- Test system: ACHN
- Method Summary: Antiproliferative activity against human ACHN cells by SRB assay
- Assay type: functional
Parameter: GI50 (µM)

Line Notation	Measurement Target	Parameter	Reading Unit	Result
C=CC[N+](CC)(CC)CCN(C)C(=O)CCCCCCCCCCCCCCC	ACHN	GI50	µM	0.35
CCCCCCCCCCCCCC(=O)N(C)CC[N+](CC)(CC)CC	ACHN	GI50	µM	0.23
CCCCCCCCCCCCCCCC(=O)NCCC[N+](C)(C)C	ACHN	GI50	µM	3.36

A. CCCCCCCCCCCCCC(=O)N(C)CC[N+](C)(C)C
B. CCCCCCCCCCCCCCCCCC(=O)NCC(C)(C)C[N+](C)(C)CC
**Query** Between the entries labelled A and B , which has a larger GI50 value on record? Answer format: the label of the selected item.
**Result** B
(B: 1.95 µM, A: 0.26 µM)

a. CCCCCCCCCCCCCCCC(=O)N(C)CC[N+](C)(C)CC
b. C=CC[N+](C)(C)CCCN(C)C(=O)CCCCCCCCCCCCC
c. CCCCCCCCCCCCCCCC(=O)N(C)CCC[N+](C)(C)Cc1ccccc1
**Query** rank_up(items): orders items by reported GI50 in ascending numerical order. Please express your ranking as an ordered list of the labels.
**Result** a, c, b

A. CCCCCCCCCCCCCC(=O)NCCC[N+](C)(C)C
B. CCCCCCCCCCCCCCCC(=O)NCC(C)(C)C[N+](C)(C)CC
**Query** Identify the item whose GI50 is the smaller number: A or B Provide the label of your selected option as the answer.
**Result** A
